Tested on: PPARg DBDmut:RXRa IVT, anti-PPARg (DBD mutation: PPARg1 K132A/R137A, NR concentration 270 nM, RXRa partner concentration 90 nM)
Method description: PBM binding z-score (relative to random genomic background probes); higher = stronger binding; sequences stand for … in GC…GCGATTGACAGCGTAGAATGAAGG
Property: PBM binding z-score
Lab note: write the figure by itself, no unit.

Look over these answered cases.
| Seq | Reported measurement |
| --- | --- |
| TCTAGTAGGTCACGGAGGTCACACACGACGGGTA | 4.06 |
| ACTCGGAGGATAAAGGTCAGAGCTACGCCAGTGA | -0.0489 |

Proceeding to the next sequence to report its PBM binding z-score.
Qu. What does the data say about its PBM binding z-score? Entry: ACTAGTTGGTCAGCTGGGGTCACACACAATTCGG
Ans. 0.596

Origin of the recorded values: the supplement of paper PMC6555819
